# CONDITION LABEL: 323.15 K; 100 kPa; Liquid; Vibrating tube method

[
  {
    "COMPOUND": "CCCC[N+](CCCC)(CCCC)CCCC.O=S(=O)([O-])CCN(CCO)CCO",
    "UNIT SYMBOL": "kg/m3",
    "mass density": 1046.8
  },
  {
    "COMPOUND": "C[N+](C)(C)CCO.O=S(=O)([O-])CCN(CCO)CCO",
    "UNIT SYMBOL": "kg/m3",
    "mass density": 1230.5
  },
  {
    "COMPOUND": "CCCC[N+](CCCC)(CCCC)CCCC.O=S(=O)([O-])CC(O)CN1CCOCC1 [tetrabutylammonium 2-hydroxy-3-morpholinopropanesulfonate]",
    "UNIT SYMBOL": "kg/m3",
    "mass density": 1042.3
  },
  {
    "COMPOUND": "CCCC[P+](CCCC)(CCCC)CCCC.O=S(=O)([O-])CC(O)CN1CCOCC1 [tetrabutylphosphonium 2-hydroxy-3-morpholinopropanesulfonate]",
    "UNIT SYMBOL": "kg/m3",
    "mass density": 1041.3
  },
  {
    "COMPOUND": "C[N+](C)(C)CCO.O=S(=O)([O-])CC(O)CN1CCOCC1 (stereo not drawn)",
    "UNIT SYMBOL": "kg/m3",
    "mass density": 1225.6
  },
  {
    "COMPOUND": "CCCC[P+](CCCC)(CCCC)CCCC.O=S(=O)([O-])CC(O)CNC1CCCCC1",
    "UNIT SYMBOL": "kg/m3",
    "mass density": 1016
  },
  {
    "COMPOUND": "CCCC[N+](CCCC)(CCCC)CCCC.O=S(=O)([O-])CC(O)CNC1CCCCC1",
    "UNIT SYMBOL": "kg/m3",
    "mass density": 1011.5
  },
  {
    "COMPOUND": "CCCC[P+](CCCC)(CCCC)CCCC.O=S(=O)([O-])CCN(CCO)CCO",
    "UNIT SYMBOL": "kg/m3",
    "mass density": 1046.8
  }
]

Cited source for all entries: the NIST ThermoML archive (doi:10.1021/acs.jced.5b00936)
